In this section, each of the molecules is paired with its reported DC50.
target: Androgen Receptor (Homo sapiens); construct: endogenous in cells; host or cells: VCaP cells; assay: Androgen Receptor ELISA assay (PathScan AR ELISA) in VCaP cells: AR degradation, Dmax and DC50; type: cell-based; details: VCaP cells; Table 36; read-out: VCaP DC50

// known answers, use as guide
Cc1ncsc1-c1ccc([C@H](C)NC(=O)[C@@H]2C[C@@H](O)CN2C(=O)[C@@H](NC(=O)CCCCC(CCCc2ccc(C(=O)N[C@H]3C(C)(C)[C@H](Oc4ccc(C#N)c(Cl)c4)C3(C)C)nc2)N2CCN(C)CC2)C(C)(C)C)cc1 (stereo partly shown) = 51 to 500 nM
Cc1ncsc1-c1ccc([C@H](C)NC(=O)[C@@H]2C[C@@H](O)CN2C(=O)[C@@H](NC(=O)COCCCCOc2ccc(-c3ccc(C(=O)N[C@H]4C(C)(C)[C@H](Oc5ccc(C#N)c(Cl)c5)C4(C)C)cc3)cc2)C(C)(C)C)cc1 = < 50 nM
Cc1ncsc1-c1ccc(CNC(=O)[C@@H]2C[C@@H](O)CN2C(=O)C(NC(=O)COCCN2CCN(c3ccc(C(=O)N[C@H]4C(C)(C)[C@H](Oc5ccc(C#N)c(C(F)(F)F)c5)C4(C)C)cn3)C(=O)C2)C(C)(C)C)cc1 (stereo partly shown) [Example 711] = < 50 nM

Let us examine a further case.
[Q] Any idea what DC50 was measured for Cc1ncsc1-c1ccc([C@H](C)NC(=O)[C@@H]2C[C@@H](O)CN2C(=O)[C@H](C(C)C)n2cc(-c3ccnc(OC4CN(c5ncc(C(=O)NC6C(C)(C)C(Oc7ccc(C#N)c(Cl)c7)C6(C)C)cn5)C4)c3)cn2)cc1 (stereo partly shown) ?
[A] < 50 nM

---

Target: Androgen Receptor (Homo sapiens)
Construct: endogenous in cells; host or cells: VCaP cells
Assay: Androgen Receptor ELISA assay (PathScan AR ELISA) in VCaP cells: AR degradation, Dmax and DC50
Assay type: cell-based
Settings: concentration that caused 50% Androgen Receptor degradation, VCaP cells (Table 32); read-out: VCaP DC50
Description: 1. Androgen Receptor ELISA Assay. The protocols used with VCaP cells are described below. The androgen receptor ELISA assay was performed using PathScan AR ELISA (Cell Signaling Catalog #12850) according to the following assay steps: […]
Reported property: DC50

CC(C)(C)[C@H](NC(=O)COCCCCCOc1ccc(C(=O)N[C@H]2C(C)(C)[C@H](Oc3ccc(C#N)c(Cl)c3)C2(C)C)cc1)C(=O)N1C[C@H](O)C[C@H]1C(=O)NCc1ccc(-c2cncs2)cc1 = < 0.05 µM

Let us examine a further case.
[Q] Any idea what DC50 was measured for Cc1ncsc1-c1ccc(CNC(=O)[C@@H]2C[C@@H](O)CN2C(=O)[C@@H](NC(=O)COCCCCNc2ccc(C(=O)N[C@H]3C(C)(C)[C@H](Oc4ccc(C#N)c(Cl)c4)C3(C)C)cc2)C(C)(C)C)cc1 ?
[A] < 0.05 µM

---

Biological target: Androgen Receptor (Homo sapiens, UniProt P10275)
Construct: endogenous in cells; host or cells: VCaP cells
Sequence (P10275 1-920): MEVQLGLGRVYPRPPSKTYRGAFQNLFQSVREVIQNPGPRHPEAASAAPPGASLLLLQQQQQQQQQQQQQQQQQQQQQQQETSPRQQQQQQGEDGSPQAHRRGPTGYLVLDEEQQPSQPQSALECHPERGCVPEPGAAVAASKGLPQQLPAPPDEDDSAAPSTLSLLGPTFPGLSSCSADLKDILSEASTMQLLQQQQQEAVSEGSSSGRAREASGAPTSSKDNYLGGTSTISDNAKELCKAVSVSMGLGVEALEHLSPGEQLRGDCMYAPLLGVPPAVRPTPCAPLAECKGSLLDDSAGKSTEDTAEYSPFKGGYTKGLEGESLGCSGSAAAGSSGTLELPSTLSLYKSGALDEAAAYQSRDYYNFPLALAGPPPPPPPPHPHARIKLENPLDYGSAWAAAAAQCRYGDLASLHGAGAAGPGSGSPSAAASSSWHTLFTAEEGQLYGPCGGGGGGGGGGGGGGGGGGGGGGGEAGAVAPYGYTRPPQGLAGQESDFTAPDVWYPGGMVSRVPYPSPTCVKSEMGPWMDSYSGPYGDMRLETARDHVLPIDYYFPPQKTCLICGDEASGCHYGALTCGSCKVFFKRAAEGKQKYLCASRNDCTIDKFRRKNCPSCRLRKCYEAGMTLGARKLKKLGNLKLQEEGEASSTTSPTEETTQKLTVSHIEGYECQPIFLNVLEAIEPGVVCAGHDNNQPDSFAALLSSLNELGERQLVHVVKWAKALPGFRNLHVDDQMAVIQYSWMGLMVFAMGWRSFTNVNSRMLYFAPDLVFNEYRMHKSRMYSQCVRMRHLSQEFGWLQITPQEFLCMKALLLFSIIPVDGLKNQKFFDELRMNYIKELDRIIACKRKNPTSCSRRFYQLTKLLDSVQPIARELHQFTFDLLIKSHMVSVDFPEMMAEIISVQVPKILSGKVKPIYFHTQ
Assay: Androgen Receptor ELISA assay (PathScan AR ELISA) in VCaP cells: AR degradation, Dmax and DC50
Assay type: cell-based
Details: VCaP cells; Table 36; read-out: VCaP DC50
Method: 1. Androgen Receptor ELISA Assay. The protocols used with VCaP cells are described below. The androgen receptor ELISA assay was performed using PathScan AR ELISA (Cell Signaling Catalog #12850) according to the following assay steps: […]
Reported property: DC50

Cc1ncsc1-c1ccc([C@H](C)NC(=O)[C@H]2C[C@H](O)CN2C(=O)[C@@H](NC(=O)CN2C3CCC2CN(CCCCc2ccc(C(=O)N[C@H]4C(C)(C)[C@H](Oc5ccc(C#N)c(Cl)c5)C4(C)C)cc2)C3)C(C)(C)C)cc1 = > 0.501 µM

[Q] Find the measured DC50: item Cc1ncsc1-c1ccc([C@H](C)NC(=O)[C@@H]2C[C@@H](O)CN2C(=O)[C@@H](NC(=O)COC2CC(N3CCN(c4ccc(C(=O)NC5C(C)(C)C(Oc6ccc(C#N)c(Cl)c6)C5(C)C)cn4)CC3)C2)C(C)(C)C)cc1 (some centres unmarked) , target or system Androgen Receptor (Homo sapiens, UniProt P10275).
[A] < 0.05 µM

[Q] Find the measured DC50: item Cc1ncsc1-c1ccc([C@H](C)NC(=O)[C@@H]2C[C@@H](O)CN2C(=O)[C@@H](NC(=O)COCCN2CCN(c3ccc(C(=O)N[C@H]4C[C@@H](Oc5ccc(C#N)c(Cl)c5)C4(C)C)cn3)CC2)C(C)(C)C)cc1 , target or system Androgen Receptor (Homo sapiens, UniProt P10275).
[A] < 0.05 µM

[Q] Find the measured DC50: item Cc1ncsc1-c1ccc([C@H](C)NC(=O)[C@@H]2C[C@@H](O)CN2C(=O)[C@H](c2ncc(CCCCCNc3ccc(C(=O)N[C@H]4C(C)(C)[C@H](Oc5ccc(C#N)c(Cl)c5)C4(C)C)nc3)n2C)C(C)C)cc1 , target or system Androgen Receptor (Homo sapiens, UniProt P10275).
[A] > 0.501 µM

[Q] Find the measured DC50: item C/C(=N\OCCN1CCN(CC(=O)N[C@H](C(=O)N2C[C@H](O)C[C@H]2C(=O)N[C@@H](C)c2ccc(-c3scnc3C)cc2)C(C)(C)C)CC1)c1cc(C(=O)N[C@@H](C)Cn2ccc(-c3ccc(C#N)c(Cl)c3)n2)n[nH]1 , target or system Androgen Receptor (Homo sapiens, UniProt P10275).
[A] < 0.05 µM

[Q] Find the measured DC50: item Cc1ncsc1-c1ccc(CNC(=O)[C@@H]2C[C@@H](O)CN2C(=O)[C@@H](C(C)C)N2Cc3ccc(N4CCN(CCCc5ccc(C(=O)N[C@H]6C(C)(C)[C@H](Oc7ccc(C#N)c(Cl)c7)C6(C)C)cc5)CC4)cc3C2=O)cc1 , target or system Androgen Receptor (Homo sapiens, UniProt P10275).
[A] > 0.501 µM

[Q] Find the measured DC50: item COc1cc(C#N)ccc1[C@H](C)NC(=O)[C@@H]1C[C@@H](O)CN1C(=O)[C@@H](NC(=O)COCCN1CCN(c2ccc(C(=O)N[C@H]3C(C)(C)[C@H](Oc4ccc(C#N)c(Cl)c4)C3(C)C)cn2)CC1)C(C)(C)C , target or system Androgen Receptor (Homo sapiens, UniProt P10275).
[A] < 0.05 µM

[Q] Find the measured DC50: item Cc1ncsc1-c1ccc([C@H](C)NC(=O)[C@@H]2CC(O)CN2C(=O)[C@H](C(C)C)n2nccc2OCCCCCNc2ccc(C(=O)N[C@H]3C(C)(C)[C@H](Oc4ccc(C#N)c(Cl)c4)C3(C)C)cc2)cc1 (some centres unmarked) [Example 625] , target or system Androgen Receptor (Homo sapiens, UniProt P10275).
[A] > 0.501 µM

Reference source for all entries: patent US11427548B2
